# kcat/Km per entry
substrate: COC(=O)[C@@H]1[C@H](C(=O)OC)N(Cc2ccccc2)C(=O)N1Cc1ccccc1; experiment: HPLC of biotin monomethyl ester, Michaelis-Menten fit; type: biochemical, Microbacterium aurantiacum; conditions: pH 8.0, 0.05 M PBS, 30 °C, substrate 0.1 to 10 mM
MEASURED ENDPOINT: kcat/Km (M⁻¹ s⁻¹)

{"columns": ["PROTEIN", "NUMERIC VALUE"],
 "data": [
  ["EstSIT01 (Microbacterium aurantiacum; E301P/G215A/G293A) (protein) MTLFDGITSRIVDTDRLTVNILERAADDPQTPPDRTVVFVHGNVSSALFWQEIMQDLPSDLRAIAVDLRGFGGSEHAPVDATRGVRDFSDDLHATLEALDIPVAHLVGWSMGGGVVMQYALDHPVLSLTLQSPVSPYGFGGTRRDGSRLTDDDAGCGGGGANPDFIQRLIDHDTSDDAQTSPRSVFRAGYVASDYTTDHEDVWVESMLTTSTADANYPGDAVPSDNWPGFAAGRHGVLNTMAPQYFDVSGIVDLAEKPPILWIHGTADAIVSDASFYDLNYLGQLGIVPGWPAEDVAPAQPMVSQTRDVLGRYAAGGGTVTEVAVEGAGHSAHLERPAVFRHALLEIIGYVGAAADPAPPTEAIIIRSAD", 34900],
  ["EstSIT01 (Microbacterium aurantiacum; E301P/G215A) (protein) MTLFDGITSRIVDTDRLTVNILERAADDPQTPPDRTVVFVHGNVSSALFWQEIMQDLPSDLRAIAVDLRGFGGSEHAPVDATRGVRDFSDDLHATLEALDIPVAHLVGWSMGGGVVMQYALDHPVLSLTLQSPVSPYGFGGTRRDGSRLTDDDAGCGGGGANPDFIQRLIDHDTSDDAQTSPRSVFRAGYVASDYTTDHEDVWVESMLTTSTADANYPGDAVPSDNWPGFAAGRHGVLNTMAPQYFDVSGIVDLAEKPPILWIHGTADAIVSDASFYDLNYLGQLGIVPGWPGEDVAPAQPMVSQTRDVLGRYAAGGGTVTEVAVEGAGHSAHLERPAVFRHALLEIIGYVGAAADPAPPTEAIIIRSAD", 25600],
  ["EstSIT01 (Microbacterium aurantiacum; E301P) (protein) MTLFDGITSRIVDTDRLTVNILERAADDPQTPPDRTVVFVHGNVSSALFWQEIMQDLPSDLRAIAVDLRGFGGSEHAPVDATRGVRDFSDDLHATLEALDIPVAHLVGWSMGGGVVMQYALDHPVLSLTLQSPVSPYGFGGTRRDGSRLTDDDAGCGGGGANPDFIQRLIDHDTSDDAQTSPRSVFRAGYVASDYTTDHEDVWVESMLTTSTADGNYPGDAVPSDNWPGFAAGRHGVLNTMAPQYFDVSGIVDLAEKPPILWIHGTADAIVSDASFYDLNYLGQLGIVPGWPGEDVAPAQPMVSQTRDVLGRYAAGGGTVTEVAVEGAGHSAHLERPAVFRHALLEIIGYVGAAADPAPPTEAIIIRSAD", 23200],
  ["EstSIT01 (Microbacterium aurantiacum) (protein) MTLFDGITSRIVDTDRLTVNILERAADDPQTPPDRTVVFVHGNVSSALFWQEIMQDLPSDLRAIAVDLRGFGGSEHAPVDATRGVRDFSDDLHATLEALDIPVAHLVGWSMGGGVVMQYALDHPVLSLTLQSPVSPYGFGGTRRDGSRLTDDDAGCGGGGANPDFIQRLIDHDTSDDAQTSPRSVFRAGYVASDYTTDHEDVWVESMLTTSTADGNYPGDAVPSDNWPGFAAGRHGVLNTMAPQYFDVSGIVDLAEKPPILWIHGTADAIVSDASFYDLNYLGQLGIVPGWPGEDVAPAQEMVSQTRDVLGRYAAGGGTVTEVAVEGAGHSAHLERPAVFRHALLEIIGYVGAAADPAPPTEAIIIRSAD", 51900]
]}

Data origin: paper PMC11676285
